- testedOn: human lung tryptase
- testProtocol: Tryptase inhibition activity (fluorogenic substrate Boc-Val-Pro-Arg-MCA)
- assayContext: pH7.1, 30° C., 30 minutes
measuredEndpoint: IC50 (nM)
Provide only the numeric value, understood in nM.

The cases that follow already have their IC50 on record.
[
  {
    "molecule": "O=C1NC(c2ccccc2)(c2ccccc2)C(=O)N1C(=O)c1ccc2ccccc2c1 [Compound 1]",
    "measuredEndpoint": "IC50",
    "resultUnits": "nM",
    "obsValue": 390
  },
  {
    "molecule": "CC1(c2ccccc2)NC(=O)N(C(=O)c2cccc3ccccc23)C1=O (stereo not drawn) [Compound 7]",
    "measuredEndpoint": "IC50",
    "resultUnits": "nM",
    "obsValue": 370
  }
]

Moving on to the next molecule.
Item CC1(c2ccccc2)C(=O)N(C(=O)c2cccc3ccccc23)C(=O)N1Cc1cccc(Cl)c1 (stereo not drawn) [Compound 25] : provide IC50
86000

====

- testedOn: recombinant human chymase (Homo sapiens, UniProt P23946)
- Sequence (P23946 22-247): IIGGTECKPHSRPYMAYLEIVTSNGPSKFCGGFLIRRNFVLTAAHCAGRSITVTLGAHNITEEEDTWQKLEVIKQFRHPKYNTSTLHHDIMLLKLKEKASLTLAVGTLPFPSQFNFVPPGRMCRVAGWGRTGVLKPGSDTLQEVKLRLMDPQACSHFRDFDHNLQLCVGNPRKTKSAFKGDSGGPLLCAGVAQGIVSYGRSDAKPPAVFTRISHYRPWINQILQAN
- testProtocol: Chymase inhibition activity (fluorogenic substrate Suc-Ala-Ala-Pro-Phe-MCA)
- assayContext: 30° C., 30 minutes
measuredEndpoint: IC50 (nM)
Your answer should be a plain number; it is taken to be in nM.

Under recombinant human chymase (Homo sapiens, UniProt P23946): report IC50 of CC1(c2ccccc2)C(=O)N(C(=O)c2cccc3ccccc23)C(=O)N1Cc1cccc(Cl)c1 (stereo not drawn) .
580

Fetch value of IC50 on recombinant human chymase (Homo sapiens, UniProt P23946) for O=C1NC(c2ccccc2)(c2ccccc2)C(=O)N1C(=O)c1ccc2ccccc2c1 .
66

Provide the reported IC50 (system: recombinant human chymase (Homo sapiens, UniProt P23946)) for CC1(c2ccccc2)NC(=O)N(C(=O)c2cccc3ccccc23)C1=O (stereo not drawn)
6500

The origin of these recorded values is patent US6919365B2.
